- Test system: MDA-MB-435
- Protocol: NCI tumour cell line growth inhibition, 48 h
Activity calls are given as the source filed them. Rule as the data show it: active = GI50 up to about 1.1 µM and inactive = higher.
Measurement Label: GI50

O=C1N/C(=N/N=C\c2ccccc2)N/C1=C/c1ccccc1 : 17.1 µM (inactive)
CN(C)C(=O)Oc1ccc(-c2cn3cc(NC(=O)c4ccccc4)ccc3n2)cc1 : 85.7 µM (inactive)
Cc1cccc2cc3ccc4ccccc4c3cc12 : 47.6 µM (inactive)
CCCn1c2c(c3ccccc3c1=O)C(=O)c1ccccc1-2 : > 100 µM (inactive)
CO[C@H]1[C@@H](O)[C@@H](C)O[C@@H](O[C@H]2CC[C@@]3(C)[C@H](CC[C@@H]4[C@@H]3CC[C@]3(C)[C@@H](C5=CC(=O)OC5)[C@@H](OC(C)=O)C[C@]43O)C2)[C@@H]1O [NERITALOSIDE] : 0.124 µM (active)

Given the molecule NC(=O)N/N=C(/CC1C(=O)Oc2ccccc21)c1ccccc1O (stereo not given) , what is its reported GI50? 43.8 µM (inactive)

Also, CC(=O)Nc1c(C)cc2c(nc3n2CCC3O)c1[N+](=O)[O-] (stereo not given) please. > 100 µM (inactive)

Also, O=C(O)c1nn(-c2ccccc2-c2nnc(O)nc2O)c(=O)[nH]c1=O please. > 100 µM (inactive)

Also, Cc1[nH]c(-c2ccccc2)c(O)c1C(=O)OC12CC3CC(CC(C3)C1)C2 please. 15 µM (inactive)

Also, O=C1CSC2=NC3=C(COC/C3=C\c3ccc(Br)cc3)C(c3ccc(Br)cc3)N12 (stereo not given) please. 49 µM (inactive)

Also, CC(C)OC(=O)NNc1c(Cl)cc(Cl)cc1Cl please. 82.8 µM (inactive)

Also, CC(/C=N/N=C(N)N)=N\N=C(N)N please. 12.9 µM (inactive)

# credit: ChEMBL document CHEMBL1201862
